system: mammalian hybridoma cells producing and secreting antibodies; assay: Antibody production by hybridoma cells cultured in medium containing a test peptide (nearest neighbor example, model data); assay type: cell-based; conditions: training set peptide added to hybridoma culture medium; model data
assay_endpoint: Biol. Act. (antibody production)

Below are worked cases with known answers.
// field: Biol. Act. (antibody production); key: Asp-Lys-Ala-His (DKAH) ; value = 15.0

// field: Biol. Act. (antibody production); key: Glu-Ser-Met-His (ESMH) ; value = 19.3

// field: Biol. Act. (antibody production); key: Gly-Val-Asn-Glu (GVNE) ; value = 14.4

For the next question, use this substance.
// field: Biol. Act. (antibody production); key: Asp-Trp-Pro-Ala (DWPA) ; value = 25.0
